tested on: Staphylococcus aureus; experiment: Antimicrobial activity against glycopeptide intermediate resistant Staphylococcus aureus 3793 isolate; format: functional
readoutKind: MIC (µg/mL)
Enter your answer as a number in µg/mL; do not include the unit.

Recorded MIC, per entry:
>  <compound>
CN[C@H](CC(C)C)C(=O)N[C@H]1C(=O)N[C@@H](CC(N)=O)C(=O)N[C@H]2C(=O)N[C@H]3C(=O)N[C@H](C(=O)N[C@H](C(=O)O)c4cc(O)cc(O)c4-c4cc3ccc4O)[C@H](O)c3ccc(c(Cl)c3)Oc3cc2cc(c3O[C@@H]2O[C@H](CO)[C@@H](O)[C@H](O)[C@H]2O[C@H]2C[C@](C)(N)[C@H](O)[C@H](C)O2)Oc2ccc(cc2Cl)[C@H]1O

>  <readoutKind>
MIC

>  <assayValue>
16

$$$$
>  <compound>
CN[C@H](CC(C)C)C(=O)N[C@H]1C(=O)N[C@@H](CC(N)=O)C(=O)N[C@H]2C(=O)N[C@H]3C(=O)N[C@H](C(=O)N[C@H](C(=O)NC4C5CC6CC(C5)CC4C6)c4cc(O)cc(O)c4-c4cc3ccc4O)[C@H](O)c3ccc(c(Cl)c3)Oc3cc2cc(c3O[C@H]2O[C@@H](CO)[C@H](O)[C@@H](O)[C@@H]2O[C@H]2C[C@@](C)(N)C(O)[C@@H](C)O2)Oc2ccc(cc2Cl)[C@H]1O (some centres undefined)

>  <readoutKind>
MIC

>  <assayValue>
4

$$$$
>  <compound>
CN[C@H](CC(C)C)C(=O)N[C@H]1C(=O)N[C@@H](CC(N)=O)C(=O)N[C@H]2C(=O)N[C@H]3C(=O)N[C@H](C(=O)N[C@H](C(=O)NC4C5CC6CC(C5)CC4C6)c4cc(O)cc(O)c4-c4cc3ccc4O)[C@H](O[C@@H]3C[C@@](C)(N)[C@H](O)[C@@H](C)O3)c3ccc(cc3)Oc3cc2cc(c3O[C@H]2O[C@@H](CO)[C@H](O)[C@@H](O)[C@@H]2O[C@H]2C[C@](C)(N)[C@@H](O)[C@H](C)O2)Oc2ccc(cc2Cl)[C@H]1O (some centres undefined)

>  <readoutKind>
MIC

>  <assayValue>
2

$$$$

Bench note, Staphylococcus aureus: entry CN[C@H](CC(C)C)C(=O)N[C@H]1C(=O)N[C@@H](CC(N)=O)C(=O)N[C@H]2C(=O)N[C@H]3C(=O)N[C@H](C(=O)N[C@H](C(=O)NCC4C5CC6CC(C5)CC4C6)c4cc(O)cc(O)c4-c4cc3ccc4O)[C@H](O[C@@H]3C[C@@](C)(N)[C@H](O)[C@@H](C)O3)c3ccc(cc3)Oc3cc2cc(c3O[C@H]2O[C@@H](CO)[C@H](O)[C@@H](O)[C@@H]2O[C@H]2C[C@](C)(N)[C@@H](O)[C@H](C)O2)Oc2ccc(cc2Cl)[C@H]1O (some centres undefined) , its MIC = 1

FYI, the data here is from ChEMBL document CHEMBL1146231.
